Tested on: NCI/ADR-RES ovarian
Test: NCI tumour cell line growth inhibition, 48 h
# TGI listing for each entry below
Numeric answer only, unit µM assumed.

Solved cases (2 shown):
# structure.notation, measured.metric, val
records = [
    ("O=c1c2cc([N+](=O)[O-])ccc2n(Cc2ccccc2)n1Cc1ccccc1", "TGI", 20.3),
    ("CN1CCC[C@@H]1CCO[C@](C)(c1ccccc1)c1ccc(Cl)cc1", "TGI", 21.7),
]

Now turn to the next molecule.
Request the reported TGI associated with O=C1/C(=C\C(Cl)=C/c2ccc([N+](=O)[O-])cc2)SC(=S)N1CCc1ccc(O)cc1 1.78

###

Quick reference: TGI of the listed items.
System: HT29 colon
Assay: NCI tumour cell line growth inhibition, 48 h

# compound, measured.metric, val
measured = [
    ("COc1ccc(-c2cc(=O)c3c(OC)c(OC)c(OC)c(OC)c3o2)cc1OC", "TGI", "> 100 µM"),
    ("Cc1cccc2c(N=Nc3ccc(S(N)(=O)=O)cc3)c(O)[nH]c12", "TGI", "> 25 µM"),
    ("COc1ccc(NC(=O)C(=O)C2CNC(=O)NC2=O)c(OC)c1 (stereo unspecified)", "TGI", "> 100 µM"),
    ("CN(c1ccccc1)S(=O)(=O)c1ccccc1[N+](=O)[O-]", "TGI", "> 100 µM"),
]

Quick check: TGI of CCOC(=O)CC(=O)C(=O)NNC1=NCCCN1 ? > 100 µM

What does the record list as TGI for OCC1NCC(O)C(O)C1O (stereo unspecified) ? > 100 µM

###

Tested on: HCT-116 colon
Non-standard residues stand in square brackets, D forms with d. Residues, ends and D or L forms follow the SMILES beside them. ξ: configuration not given here. *: point of attachment. Boc = CC(C)(C)OC(=O)*; ξV = CC(C)C(N)C(=O)O; OBn = c1ccc(CO*)cc1
Write down one outcome, taken from 1 (active), 0 (inactive)

Example entries begin here.
# compound, category.label
measured = [
    ("ClCc1ccc(-c2ccc(Cn3cnc4c(Cl)nc(Cl)nc43)cc2)cc1", 0),
    ("CCCc1cc2cc(-n3nc(C)c4c3CC(C)(C)CC4=O)cc(NC3CCC(O)CC3)c2c(=O)[nH]1 (centres undefined)", 1),
    ("COc1ccc(-c2nn(-c3cccc(NC(=O)Nc4ccc(Cl)c(C(F)(F)F)c4)c3)cc2-c2ccncc2)cc1Cl", 0),
    ("Cc1cccc2c(N=Nc3ccc(S(N)(=O)=O)cc3)c(O)[nH]c12", 0),
    ("CC(C)C(NC(=O)OC(C)(C)C)C(=O)NCC(=O)OCc1ccccc1 (centres undefined) (Boc-[ξV]-Gly-OBn)", 0),
    ("NC1=C(Cl)C(=O)c2ccc(S(N)(=O)=O)cc2C1=O", 1),
    ("C/C(CC(=O)NNc1ccc([N+](=O)[O-])cc1)=N\\Nc1ccc([N+](=O)[O-])cc1", 0),
    ("COC(=O)C(C)NP(=O)(OCc1ccc(Cn2cnc3c(=O)[nH]c(N)nc32)cc1)Oc1ccccc1 (centres undefined)", 0),
]

Given O=C1OCc2c1cc(F)cc2[N+](=O)[O-] , state the outcome it received in this test. 0

###

Tested on: 786-0 renal
Test: NCI tumour cell line growth inhibition, 48 h
Measured TGI by item

# compound, system.tested, TGI
data = [
    ("CN(C)CCCN(c1nc(C(Cl)(Cl)Cl)ns1)c1nc(C(Cl)(Cl)Cl)ns1", "786-0 renal", "3.3 µM"),
]

For the compound Cc1ccc2c(=O)cc(-c3cccc4ccccc34)[nH]c2n1 , what TGI is on record? > 79.2 µM

Can you look up the measured TGI of CC1(C)C=C(/C=N/Nc2ccc([N+](=O)[O-])cc2)C(C#N)=C(O)C1(C#N)C#N for me? > 100 µM

For the compound shown here, O=C(O)c1ccc2c(c1Nc1ccccc1)C(=O)c1ccccc1C2=O , give the reported TGI. > 100 µM

Returns the measured TGI for the input compound. Input: CCN(CC)CCOc1ccc(/C(=C(\C)Cc2ccc(OC)cc2)c2ccc(OC(=O)NCc3ccccc3)cc2)cc1 3.04 µM

Item under review: C[C@@H](CO)OCOCc1ccccc1 . Reported TGI? > 100 µM

Which TGI value belongs to CCOC(=O)C(Cc1c2ccccc2cc2ccccc12)(NC(C)=O)C(=O)OCC ? > 100 µM

May I ask what TGI has been recorded for CC1(C)OC(C(N)=O)=C(C(N)=O)O1 ? > 100 µM

Name the recorded TGI for CN(CCCNC(=O)c1cn(C)c2c1ccc1cc(Cl)c(Cl)cc12)CCCNC(=O)c1cn(C)c2c1ccc1cc(Cl)c(Cl)cc12 . 49.4 µM

###

// reported TGI for each item listed
Tested on: A498 renal
Test: NCI tumour cell line growth inhibition, 48 h
Dear colleague, please return just the value in µM, with no unit written.

Previously resolved entries follow.
# structure.notation, system.tested, TGI (µM)
rows = [
    ("CC[C@@]1(O)C(=O)OCc2c1cc1n(c2=O)Cc2c-1nc1ccc(O)cc1c2CC[Si](C)(C)C", "A498 renal", 0.0279),
    ("Oc1c2cc(Br)cc1CCc1cc(Br)cc(c1O)CC2", "A498 renal", 73.8),
    ("COc1ccc(N(CC(=O)NCCC[Te]c2ccccc2)C(=O)CCSC2=C(C)C(=O)c3ccccc3C2=O)cc1", "A498 renal", 4.61),
]

Please turn your attention to the following entry.
Report TGI for N=C(N)c1ccc(-c2ccc(-c3ccc(Cl)cc3)o2)o1 tested on A498 renal. 7.59

###

This section presents compounds with their documented TGI values.
Test system: NCI-H23 lung
Experiment: NCI tumour cell line growth inhibition, 48 h
Where a SMILES comes first, the peptide text is derived from it.

These solved cases illustrate the format of a correct answer.
# compound, system.tested, TGI
rows = [
    ("CCOC(=O)/C(=C/c1ccc([N+](=O)[O-])cc1)C(=O)c1ccccc1", "NCI-H23 lung", "5.56 µM"),
    ("CC(C)NCC(O)COC(=O)c1cccs1 (centres undefined)", "NCI-H23 lung", "> 100 µM"),
    ("COC(=O)C(=O)c1c2ccccc2n2ccc3c4ccccc4[nH]c3c12", "NCI-H23 lung", "> 10 µM"),
]

Next compound, please.
Form field - read-out: TGI; system: NCI-H23 lung; submitted item: CC(C)CC(NC(=O)C(CC(C)C)NC(=O)C(Cc1cnc[nH]1)NC(=O)C(C)NC(=O)C(NC(=O)C(C)NC(=O)C(Cc1c[nH]c2ccccc12)NC(=O)C(CCC(=O)O)NC(=O)C(N)Cc1ccccc1)C(C)C)C(N)=O (centres undefined) (H-FEWAVAHLL-NH2; configuration not given here) > 100 µM

###

System: SN12C renal
Experiment: NCI tumour cell line growth inhibition, 48 h
measured.metric: TGI

// known answers, use as guide
# compound, TGI
rows = [
    ("CC1(C)OC(C(N)=O)=C(C(N)=O)O1", "> 100 µM"),
    ("COC(=O)CCC(NC(=O)C(C)NC(=O)COC1C(O)C(OC(=O)CCNc2c3ccccc3nc3cccc([N+](=O)[O-])c23)OC(OCc2ccccc2)C1NC(C)=O)C(N)=O (stereo not drawn)", "> 10 µM"),
]

Quick check: TGI of Cc1cc(C)c(O)c(Cc2cccc(Cc3cc(C)cc(C)c3O)c2O)c1 ? > 100 µM

###

System: T-47D breast
Assay: NCI tumour cell line growth inhibition, 48 h
Here, each record is paired with measured TGI data.

Consider the reported TGI for these compounds:
# compound, measured.metric, val
rows = [
    ("O=C(O)C1(C(=O)O)CC1(C(=O)O)C(=O)O", "TGI", "> 100 µM"),
    ("COc1ccc(N=c2ssc(C(=S)Nc3ccc(OC)cc3)c2S)cc1", "TGI", "> 100 µM"),
    ("CN(CCCNC(=O)c1cn(C)c2c1ccc1cc(Cl)c(Cl)cc12)CCCNC(=O)c1cn(C)c2c1ccc1cc(Cl)c(Cl)cc12", "TGI", "36.2 µM"),
    ("O=C(O)CC(Nc1ccccc1)C(=O)O (stereo not given)", "TGI", "> 100 µM"),
    ("O=[n+]1c2c(n([O-])c3ccccc31)-c1cccc3cccc-2c13", "TGI", "> 100 µM"),
    ("CN(C)CCn1c(=O)c2ccc3c4c(nn3CCN(C)C)c3cc(N)ccc3n(c1=O)c24", "TGI", "0.849 µM"),
    ("COc1ccc(/C(C)=C(\\c2ccc(Cl)cc2)c2ccc(OCCN3CCCC3)cc2)cc1F", "TGI", "7.87 µM"),
    ("NCC#CCNCCCN1CC1", "TGI", "> 100 µM"),
    ("COC(=O)[C@@H]1C[C@H]([Se]c2ccccc2)CN1S(=O)(=O)c1ccc(C)cc1", "TGI", "> 100 µM"),
]

Consider the record given below.
Test system T-47D breast; read-out TGI; what value for COC(=O)C[C@@H]1C(C)(C)[C@@H]2O[C@@]34C[C@@H]2C(=O)[C@]1(C)[C@H]3CC[C@@]1(C)[C@H](c2ccoc2)OC(=O)C[C@]14O ? > 100 µM

FYI, the data here is from PubChem BioAssay (NCI).
